All figures here come from the nanobody polyreactivity screen of Harvey et al. (2022).

TEST_SUMMARY: yeast display, Sf9 membrane polyspecificity reagent, FACS + sequencing; frameworks hold sequencing errors
REPORTED_ENDPOINT: polyreactivity (PSR sort gate)

# INPUT_SEQUENCE, REPORTED_ENDPOINT, MEASURED
records = [
    ("QVHLVESRGVLVQAGGSLRLSCAASGRTFGYYAMGWYRQAPGKERELVAAINGSGSRTYYADSVKGRFTISRDNAKNSVYLQMNSLKPEDSAVYYCAATYPKYQYDYWGQGTQVTVSS", "polyreactivity (PSR sort gate)", "high polyreactivity"),
    ("QVQLVESGGGLVQAGGSLRLSCAASGFTFDNYTMGWYRQAPGKERELVAAITSSAGSTDYADSVKGRFTISRDNAKNTVYLQMNSLKPEDTAVYYCNDDFLYGTYDYWGQGTQVTVSS", "polyreactivity (PSR sort gate)", "low polyreactivity"),
    ("QVQLQESVGGLVQAGGTLRMSCAASGSFSADEDMGWYRQAQGKEREFVAGISVGGNTNYADSVKGRFTISRENAKNTVYLQINSLKPEETAVYYCAADYKPTSRSNTYYYWGQGTQVTVSS", "polyreactivity (PSR sort gate)", "high polyreactivity"),
    ("QVQLVESGGGLVQAGGSLSLSCDASGRIFPKYAMGWYRQAPGKEREMVAGITKLVGSTYYADSVKGRFTISRDNAKNTVYLQMNSLKPEDTAVYYCAADYSYLIDYLDPEKEGMDFWGQGTQVTVSS", "polyreactivity (PSR sort gate)", "low polyreactivity"),
]

Please turn your attention to the following entry.
Quick check: polyreactivity (PSR sort gate) of QVQLVESGGGLVQAGGSLRLSCAASGSTFYANAMGWYRQAPGKERELVAAITRSGAGTYYADSVKGRFTISRDNAKNTVYLQMNSLKPEDTAVYYCAKRTKTPTGYVWGGYDYWGQGTQVTVSS ?
high polyreactivity
